Tested on: PC-3 prostate
Assay: NCI-60 one-dose screen, 48 h (100 = growth as untreated, 0 = no growth, -100 = all killed)
Conditions: 10 µM unless noted
Protocol: Growth inhibition of the PC-3 human tumor cell line is measured as a screen for anti-cancer activity. Cells are grown in 96 well plates and exposed to the test compound for 48 hours. Compounds are tested at a single concentration, which is 10^-5 M for most compounds. The reported endpoint is percent growth (GI% or GIPRCNT), where numbers from 0 - 100% represent growth inhibition, and numbers from -100% - 0 represent cell death. For example, a value of 40 represents 60% growth inhibition. […]
About 83,000 compounds went through this panel and 20% of them were active in at least one assay; those are over-represented in the sample as a whole.
Recorded Metric: growth (%)
Record the value in %, omitting the unit from your answer.

COc1cc(/C=C/C(=O)c2ccc(Nc3ncnc4ccccc34)cc2)cc(OC)c1 ... 43.9

I am curious: what growth value has been reported for COc1ccccc1Nc1cc(O)c2c(=O)cc(-c3ccccc3)oc2c1 ?
54.5

Repeat for the following compound: CCOC(=O)Oc1c(OC)cc(C(=O)O[C@@H]2C[C@@H]3CN4CCc5c([nH]c6cc(OC)ccc56)[C@H]4C[C@@H]3[C@H](C(=O)OC)[C@H]2OC)cc1OC
35

Repeat for the following compound: Cc1ccc(S(=O)(=O)Nc2ccc(Cl)cc2)cc1
87.2

Repeat for the following compound: O=C(CCN1CCCC1)Nc1ccc2c(NCc3ccc(F)cc3)c3ccccc3nc2c1
-17

Repeat for the following compound: S=c1[nH]cccc1-c1nnc2n1Nc1nc3ccccc3cc1CS2
107

Repeat for the following compound: COc1cc(/C=C2\C(=O)N(Cc3ccc(Cl)cc3)c3ccccc32)cc(OC)c1OC
38.6

Repeat for the following compound: CC(C)Cc1ccc(C(C)C(=O)NCc2ccc(Cn3c(=O)sn(-c4ccc(Cl)cc4)c3=O)cc2)cc1 (stereo not given)
82.8

Repeat for the following compound: COC(=O)C1NC(=S)N(c2ccc(Cl)cc2)C1/C=C/c1ccccc1 (stereo not given)
86.2

Repeat for the following compound: CC1=CC2(C)/C=C(C)/C=C\CC(O)/C=C3/C=CC(=C4C(=O)OC2(CC1C)C4=O)OC3 (stereo not given)
-8.09

Repeat for the following compound: COc1ccc(/C(=C\c2ccccc2)C(=O)O)cc1OC
96.9

Repeat for the following compound: COc1ccc(C(O)c2cc3c(N)c(C(=O)Nc4ccc(Cl)cc4)sc3nc2C)cc1 (stereo not given)
21.4

Repeat for the following compound: COc1ccc(C2CC(n3nnnc3-c3ccccc3)=NN2)cc1 (stereo not given)
58.4

Repeat for the following compound: O=C(Nc1ccc2cc3ccc(NC(=O)NC4CCCCC4)cc3nc2c1)NC1CCCCC1
83.7

Repeat for the following compound: COc1ccc2c(/C=C3/C(=O)NC(=S)NC3C)cc(=O)oc2c1 (stereo not given)
78.6

Repeat for the following compound: CCCCCCCCOC(=O)c1ccc(O)c(OC)c1
78

The measurements presented in this section are drawn from PubChem BioAssay (NCI).
